These data points were gathered from PubChem BioAssay (NCI).

Test system: ACHN renal
Experiment: NCI-60 one-dose screen, 48 h (100 = growth as untreated, 0 = no growth, -100 = all killed)
Details: 10 µM unless noted
Compounds without any hit were thinned out: in the full panel of roughly 83,000, 20% have a hit.
Attribute: growth
Output spec: scalar in %, unitless text.

Recorded results for 5 molecules are shown here.
| Molecule | Target | Reported Result |
| --- | --- | --- |
| O=c1oc2ccc(Br)cc2cc1C1=CSc2nc3sc4c(c3c(=O)n2N=C1)CCCC4 | ACHN renal | 99.4 |
| CC(C)c1ccc2c(N)c(C(=O)Nc3cccc(C(F)(F)F)c3)sc2n1 | ACHN renal | 76 |
| CC1CCCCN1CCCNC(=O)N/C(N)=N/c1nc2ccccc2s1 (stereo unspecified) | ACHN renal | 42.5 |
| NS(=O)(=O)c1ccc(-n2cc(-c3cccc(NC(=O)c4cc(C(F)(F)F)cc(C(F)(F)F)c4)c3)nn2)cc1 | ACHN renal | 66.1 |
| CC(=O)Oc1ccccc1C(=O)[Se]CC(=O)Nc1cccc(C(F)(F)F)c1 | ACHN renal | -34.8 |

Here is another molecule to look at.
// field: growth; key: Cc1ccc2c(c1)nc(-c1ccccc1)n2CC(=O)N=Nc1c(O)[nH]c2ccc(Br)cc12 ; value = -99.9

----------
Attribute: growth
Tested on: NCI-H460 lung
Assay: NCI-60 one-dose screen, 48 h (100 = growth as untreated, 0 = no growth, -100 = all killed)
Conditions: 10 µM unless noted
About 83,000 compounds went through this panel and 20% of them were active in at least one assay; those are over-represented in the sample as a whole.
Output spec: scalar in %, unitless text.

Recorded results for 5 compounds are shown here.
| Structure Smiles String | Reported Result |
| --- | --- |
| O=C1NC(=O)c2c1c1c3cc(Br)ccc3[nH]c1c1oc3ccc(F)cc3c21 | -82.6 |
| COc1ccc(-c2ccc(SCC(=O)Nc3ccc(S(N)(=O)=O)cc3Br)nn2)cc1 | 70.2 |
| COc1ccc2[nH]cc(-c3nnc(N)nc3-c3c[nH]c4ncc(Br)cc34)c2c1 | 80.1 |
| Cc1cc2nc3c4ccccc4n(CC4=NCCN4)c3nc2cc1C | -84.1 |
| O=C(NNc1nc2cc(F)ccc2n2c(CN3CCCCC3)ccc12)c1cnccn1 | -11.7 |

Here is another compound to look at.
// field: growth; key: CSc1ccc(NC(=O)c2ccc3nnn(/C(C#N)=C/c4ccccn4)c3c2)cc1 ; value = -47.2

----------
Tested on: OVCAR-4 ovarian
Assay: NCI-60 one-dose screen, 48 h (100 = growth as untreated, 0 = no growth, -100 = all killed)
Settings: 10 µM unless noted
Protocol: Growth inhibition of the OVCAR-4 human tumor cell line is measured as a screen for anti-cancer activity. Cells are grown in 96 well plates and exposed to the test compound for 48 hours. Compounds are tested at a single concentration, which is 10^-5 M for most compounds. The reported endpoint is percent growth (GI% or GIPRCNT), where numbers from 0 - 100% represent growth inhibition, and numbers from -100% - 0 represent cell death. For example, a value of 40 represents 60% growth inhibition. […]
This is part of a sample that, as a whole, favours compounds with a hit. Of some 83,000 tested, about 20% had one in any assay.
Attribute: growth
Output spec: scalar in %, unitless text.

// field: growth; key: Clc1cccc(Cl)c1/C=C/c1cc(/C=C/c2ccc(Br)cc2)c2ccccc2n1 ; value = 93.8

// field: growth; key: O=[N+]([O-])c1ccc(/C=C/c2nc3ccccc3n3c(=S)[nH]nc23)cc1 ; value = 82.5

// field: growth; key: NS(=O)(=O)c1ccc(NNC(=O)CCC(=O)c2ccccc2)cc1 ; value = 99.2

// field: growth; key: COc1ccc(/C=C/c2n(Cc3ccc4ccccc4c3)c3ccccc3[n+]2Cc2ccc3ccccc3c2)cc1 ; value = -65

// field: growth; key: CCCCCCCS(=O)(=O)N1CCCC(C(=O)Nc2nc3ccc(NC(=O)c4ccc(F)c(OC)c4F)cc3s2)C1 (stereo not drawn) ; value = 29.8

----------
Tested on: RXF 393 renal
Assay: NCI-60 one-dose screen, 48 h
Settings: 10 µM unless noted
Compounds without any hit were thinned out: in the full panel of roughly 83,000, 20% have a hit. Active and inactive are the calls of the source. Rule for the calls: active = growth percent below 10; inactive = the rest.
Respond only with the outcome that fits, drawn from class 1 = active, class 0 = inactive

| Compound | Group |
| --- | --- |
| C#CCOc1cc(N(CC)CC)ccc1C(C(=O)NC(C)(C)C)N(C(=O)C1CCc2cc(F)ccc2O1)c1ccc(F)cc1 (centres undefined) | class 0 |
| C=C1CC[C@@H]2[C@]3(C)COC(c4cn[nH]c4-c4ccc(F)cc4)O[C@@H]3CC[C@@]2(C)[C@@H]1C/C=C1/C(=O)OCC1O (some centres undefined) | class 1 |
| O=[N+]([O-])c1ccc(/C=C/c2nc3ccccc3n3c(=S)[nH]nc23)cc1 | class 0 |
| O=C(Nc1ccccc1)N1CCN(c2cc(-c3cn(-c4ccccc4)nc3-c3cccc(O)c3)ccn2)CC1 | class 0 |

Record lookup: outcome of this test for Cc1cc2c(cc1Cl)C(=O)/C(=C/c1ccccc1)O2 ?
class 1

Record lookup: outcome of this test for Cn1cc(-c2cc3nc(-c4cn(C)c5ncccc45)cc(N)n3n2)c2cc(Cl)ccc21 ?
class 1

Record lookup: outcome of this test for O=C(NNc1ccccc1)n1c(=O)c2ccccc2c(=O)n1-c1ccccc1 ?
class 0

Record lookup: outcome of this test for N#Cc1c(-c2ccc(Cl)cc2)nc2n[nH]c(-c3ccc(Cl)cc3)c2c1-c1cccs1 ?
class 0

Record lookup: outcome of this test for O=C(NNc1nc2cc(F)ccc2n2c(C(=O)N3CCN(C4CC4)CC3)ccc12)c1ncccn1 ?
class 0

----------
Tested on: LOX IMVI melanoma
Test: NCI-60 one-dose screen, 48 h (100 = growth as untreated, 0 = no growth, -100 = all killed)
Settings: 10 µM
Compounds without any hit were thinned out: in the full panel of roughly 83,000, 20% have a hit.
Output: class label from growth. Mapping: lower level = under -90%, middle level = from -90% up to 60%, upper level = 60% and over

| Compound | Target | Group |
| --- | --- | --- |
| Cc1ccccc1[C@H]1C(C(=O)c2ccc(Cl)cc2)C2(N[C@@H]1c1ccccc1)C(=O)Nc1ccc(Cl)cc12 (stereo partly specified) | LOX IMVI melanoma | lower level |

# evaluate next
Form field 'band' for COc1ccccc1C(=O)NN1C(=O)/C(=C/C2=Cc3ccccc3OC2)SC1=S
upper level

----------
System: UACC-257 melanoma
Experiment: NCI-60 one-dose screen, 48 h
Settings: 10 µM unless noted
About 83,000 compounds went through this panel and 20% of them were active in at least one assay; those are over-represented in the sample as a whole. The source made the active and inactive calls. The calls were made as follows: active = growth percent below 10; inactive = the rest.
Respond only with the outcome that fits, drawn from active, inactive

Solved entries:
| Compound | Group |
| --- | --- |
| C=C1CCC2C3(C)COC(c4ccc(F)cc4)OC3CCC2(C)C1CC(O)C1=CCOC1=O (centres undefined) | inactive |
| CN1CCc2c(sc3ncnc(N/N=C/c4ccc(Cl)cc4Cl)c23)C1 | active |
| CN1CCN(c2ccc3c(c2)nc(NNC(=O)c2ncccn2)c2cccn23)CC1 | inactive |

# evaluate next
Record lookup: outcome of this test for C#CCOc1cc(N(CC)CC)ccc1C(C(=O)NC(C)(C)C)N(C(=O)C1CCc2cc(F)ccc2O1)c1ccccc1F (centres undefined) ?
inactive

----------
Test system: SR leukemia
Experiment: NCI-60 one-dose screen, 48 h
Settings: 10 µM unless noted
About 83,000 compounds went through this panel and 20% of them were active in at least one assay; those are over-represented in the sample as a whole. Active and inactive are the calls of the source. Rule for the calls: active = growth percent below 10; inactive = the rest.
Respond only with the outcome that fits, drawn from Y (active), N (inactive)

| Molecule | Group |
| --- | --- |
| CC(C)CSc1nc(NCCc2c[nH]c3ccccc23)c(C#N)c(-c2ccccc2)n1 | Y |
| C=C1CC[C@@H]2[C@]3(C)COC(c4ccco4)O[C@@H]3CC[C@@]2(C)[C@@H]1C/C=C1/C(=O)OCC1OC(C)=O (some centres not stated) | Y |
| CC1=C(C(=O)c2ccccc2)C(c2cccc3ccccc23)n2c(nc3ccccc32)N1 (configuration not stated) | N |
| Cn1nc(C(F)(F)F)cc1-c1cc(Cl)c(COc2ccc(Cl)cc2)c(-c2ccc(Cl)c(C(F)(F)F)c2)c1O | Y |
| O=C(Cn1nc(-c2ccccc2)ccc1=O)N/N=C/c1ccc(N2CCOCC2)cc1 | N |

Record lookup: outcome of this test for COc1c(F)ccc(C(=O)Nc2ccc3nc(NC(=O)C4CCCN(S(=O)(=O)c5cccc(Cl)c5)C4)sc3c2)c1F (configuration not stated) ?
N

Record lookup: outcome of this test for CCCCCCCCc1ccc(C(=O)Nc2cccc(P(=O)(O)O)c2)cc1 ?
N

Record lookup: outcome of this test for CCN(CC)c1ccc(/C=N/Nc2nc(-c3ccc(C)cc3)cs2)c(O)c1 ?
N

Record lookup: outcome of this test for COc1ccc(-c2c(Nn3cnnn3)no[n+]2[O-])cc1 ?
N

Record lookup: outcome of this test for CN(C)c1nc(NCCNS(=O)(=O)c2ccc(C(=O)/C=C/c3ccc(C(F)(F)F)cc3)cc2)nc(Nc2ccc(F)cc2)n1 ?
Y

Record lookup: outcome of this test for CCOc1ccc(C(=O)NC(=S)Nc2ccc(S(N)(=O)=O)cc2)cc1 ?
N

Record lookup: outcome of this test for C#CCOc1cc(N(CC)CC)ccc1C(C(=O)NC(C)(C)C)N(C(=O)C1CCc2cc(F)ccc2O1)c1ccccc1Br (configuration not stated) ?
N

Record lookup: outcome of this test for O=C(/C=C/c1cccc(OCc2ccc(F)cc2)c1)c1nc2ccccc2[nH]1 ?
Y

Record lookup: outcome of this test for C(=C\c1cc(/C=C/c2ccccc2)c2ccccc2n1)/c1ccccc1 ?
N

Record lookup: outcome of this test for Clc1cccc(N/N=C/c2c[nH]c3ccc(Br)cc23)n1 ?
Y

Record lookup: outcome of this test for Cc1ccc(NCC(=O)Cn2cc(COc3ccc(C=Nc4cnc5ccccc5c4)cc3)nn2)cc1 ?
N

Record lookup: outcome of this test for COc1ccc2[nH]c(O)c(N=NC(=O)COc3ccc(NC(=O)Nc4ccccc4)cc3)c2c1 ?
N

Record lookup: outcome of this test for CCN1C(=O)/C(=N\N=C(/C)c2ccc3c(c2)Nc2ccccc2S3)c2cc(Cl)ccc21 ?
N

Record lookup: outcome of this test for N/C(=N\c1nc2ccccc2s1)NC(=O)Nc1ccccc1Br ?
N

Record lookup: outcome of this test for N#Cc1c(-c2cccc3ccccc23)cc(-c2cccc(OCC(=O)O)c2)[nH]c1=O ?
N

Record lookup: outcome of this test for COc1cccc(/C=C/c2nc3ccccc3c(=O)n2CC(=O)Nc2ccc(Cl)cc2)c1 ?
N

Record lookup: outcome of this test for O=C(/C=C/Nc1ccc2oc(=O)ccc2c1)c1cc2cc(Br)ccc2oc1=O ?
N

Record lookup: outcome of this test for CN(C)c1ccnc(CNCCSC2(c3ccc(C(F)(F)F)cc3)c3ccccc3C=Cc3ccccc32)c1 ?
Y

Record lookup: outcome of this test for Cn1cc(-c2cc(N)n3nc(-c4c[nH]c5ccccc45)cc3n2)c2cccnc21 ?
Y

Record lookup: outcome of this test for C=C1CC[C@@H]2[C@]3(C)COC(c4cn[nH]c4-c4ccc(Br)cc4)O[C@@H]3CC[C@@]2(C)[C@@H]1C/C=C1/C(=O)OCC1O (some centres not stated) ?
Y

Record lookup: outcome of this test for COc1cc2oc(-c3cccc(C(=O)Nc4ccc(Cl)cc4)c3)cc(=O)c2c(OCCNC(=O)[C@H](CCC(=O)OC(C)(C)C)NC(=O)OC(C)(C)C)c1OC ?
N

Record lookup: outcome of this test for Cc1ccc([C@H]2C(C(=O)c3ccc(Cl)cc3)C3(N[C@@H]2c2ccccc2)C(=O)Nc2ccc(Cl)cc23)cc1 (some centres not stated) ?
Y
